Each entry below lists one item and its recorded abundance fitness value.
B1: Unconventional myosin-Ie, residues 1051 to 1108; numbered along this chain, Q12965 (parent)
chain: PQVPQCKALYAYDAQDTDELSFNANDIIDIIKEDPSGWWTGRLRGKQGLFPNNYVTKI

variants of: B1; assay: abundance fitness (aPCA) (normalised: wild type 0, dead -1); higher = more abundant; growth selection in yeast, the domain comes from the species named; settings: Homo sapiens

// known answers, use as guide
PQVPQCKALYAYDAQDTDELSFNANDIIDIIKEDPSGWWTGRLRGKQWLFPNNYVTKI [G48W]	-0.609
PQVPQCKALYAYDAQDTDELSFNANDIIDEIKEDPSGWWTGRLRGKQGLFPNNYVTKI [I30E]	-0.864
PQVPQCKALYAYDAQDTDELSFNANDIIDIIKEDPSGWWTGRLRGKQGLFPNFYVTKI [N53F]	0.071

Any idea what abundance fitness was measured for PQVPQCKALYAYDAQDTDELSFPANDIIDIIKEDPSGWWTGRLRGKQGLFPNNYVTKI [N23P] ?
-0.788

So what's the measured abundance fitness for this one? PQVPQCKALYAYDAQDTDTLSFNANDIIDIIKEDPSGWWTGRLRGKQGLFPNNYVTKI [E19T]
-0.132

What value of abundance fitness has been reported for the following variant? PQVPQCKALYAYDAQDTDELQFNANDIIDIIKEDPSGWWTGRLRGKQGLFPNNYVTKI [S21Q]
-0.325

Please report the recorded abundance fitness for PQVPQCKALYAYDAQDTDELSFNANDIIDIIKEDPSGWWTGRLRGKQGLFENNYVTKI [P51E] .
-0.674

Which abundance fitness value is on record for PQVPQCKALYAYDAQDTDELSFNQNDIIDIIKEDPSGWWTGRLRGKQGLFPNNYVTKI [A24Q] ?
-0.164

So what's the measured abundance fitness for this one? PQVPQCKALYAYDAQDTDELSFNANDIIDIIKEDPSGWWTGRLRGKQGLFPNNYVIKI [T56I]
-0.261

State the recorded abundance fitness for this entry: PQVPQCKALYAYDAQDTDELSFNANDIIDIIKEDPSGWWTGRLRGKQGLFPNNFVTKI [Y54F]
-0.243

Given the entry PQVPQCKALYAYDAQDTDELSFNANDIIDIIKEDPSGWWTGRLRGKQGLFPNNYVYKI [T56Y] , report its measured abundance fitness.
-0.197
